# Tested on: HEK-293 and HEK-293/BKRB1 tumours
# PROTOCOL_TEXT: Biodistribution of Ga-68 Peptide 12 in tumour-bearing mice
# Type: in vivo, mouse
# STATED_CONDITIONS: Skin; 1 h post-injection
QUANTITY_MEASURED: Biodistribution Skin Average (%ID/g)
Express the result in %ID/g but write the number alone.

Inquiry: Specify measured Biodistribution Skin Average for N=C(N)NCCC[C@H](NC(=O)[C@H](CCCCN)NC(=O)CCCCCNC(=O)CN1CCN(CC(=O)O)CCN(CC(=O)O)CCN(CC(=O)O)CC1)C(=O)N1CCC[C@H]1C(=O)N1C[C@H](O)C[C@H]1C(=O)NCC(=O)N[C@@H](CC1CCCCC1)C(=O)N[C@@H](CO)C(=O)N1CCC[C@H]1C(=O)N[C@H](Cc1ccccc1)C(=O)O [Ga-68 Peptide 12, metal not drawn] .
Reply text: 0.223
